- Study System: NEDD8-conjugating enzyme Ubc12 (Homo sapiens) + NEDD8-activating enzyme E1 regulatory subunit (Homo sapiens) (UniProt P61081+Q13564)
- Sequence (P61081 whole entry, looked up): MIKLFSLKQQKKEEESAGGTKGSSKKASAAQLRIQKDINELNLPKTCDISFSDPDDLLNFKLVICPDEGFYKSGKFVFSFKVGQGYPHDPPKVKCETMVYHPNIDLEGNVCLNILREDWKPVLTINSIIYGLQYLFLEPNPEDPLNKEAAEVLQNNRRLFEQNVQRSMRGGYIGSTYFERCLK
- Sequence (Q13564 whole entry, looked up): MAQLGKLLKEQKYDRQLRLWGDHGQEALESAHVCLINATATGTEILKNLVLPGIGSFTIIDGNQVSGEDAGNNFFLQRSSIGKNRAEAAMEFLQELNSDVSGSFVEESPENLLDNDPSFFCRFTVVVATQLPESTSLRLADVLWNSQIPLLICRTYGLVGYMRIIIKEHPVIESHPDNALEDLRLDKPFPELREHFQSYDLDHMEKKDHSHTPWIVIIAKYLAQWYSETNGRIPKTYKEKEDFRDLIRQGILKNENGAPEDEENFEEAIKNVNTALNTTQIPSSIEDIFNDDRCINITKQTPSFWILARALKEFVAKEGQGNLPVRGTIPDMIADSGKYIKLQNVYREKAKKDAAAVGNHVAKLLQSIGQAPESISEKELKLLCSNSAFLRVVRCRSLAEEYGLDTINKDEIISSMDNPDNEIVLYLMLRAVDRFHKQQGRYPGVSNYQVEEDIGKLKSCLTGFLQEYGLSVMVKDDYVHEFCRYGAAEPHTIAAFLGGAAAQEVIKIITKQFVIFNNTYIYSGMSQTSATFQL
- Assay Name: inhibitors of CUL1 neddylation, potency, dose response, biochemical, TR-FRET (AID 652247)
- Assay Context: in vitro CUL1 neddylation
Activity calls are given as the source filed them. The rule behind the calls is not given here.
Measure: IC50

For orientation, consider the following solved cases.
{"Compound": "C(=C\\c1ccc2nncn2c1)/c1ccccc1", "Result": "inactive"}
{"Compound": "CCOc1ccc2[nH]c3ncccc3c(=O)c2c1", "Result": "inactive"}
{"Compound": "CN1CCOc2c1cnn(CCO)c2=O", "Result": "inactive"}
{"Compound": "Cc1cc(NS(=O)(=O)c2ccc(NS(=O)(=O)c3ccc(Br)cc3)cc2)no1", "Result": "inactive"}
{"Compound": "CCOC(=O)c1cc2c(=O)n3ccccc3nc2n(CCOC)c1=NC(=O)c1ccncc1", "Result": "inactive"}

-- ask Using known records, supply IC50 for CN(C)CCNc1nc(-c2ccco2)c2c(c1C#N)CC(C)(C)OC2
-- reply inactive
